Target: T1, recombinant human domain 1-3His6 of the cation-independent mannose-6-phosphate receptor (human, UniProt P11717 41-467)
T1 construct: Biotinylated (NHS-PEG4-biotin) for BLI; Glycosylated; also called hDom1-3His6; hCI-M6PRD1-D3
Experiment: BLI exp 1, dissoc pH 5
Doc: threshold 0.009 s⁻¹ (exclusive). Items with koff beneath it return 1.0; others return 0.0.

Field: example entries. Status: answers known.
{"binder": "anti-CI-M6PR VHH5 (VHH, His6-tagged; made in Pichia pastoris, later also in E. coli WK6) VHH: QVQLQESGGGLVQAGGSLKLSCAAAGRTFSRLAMGWFRQAPGKEREFVAAISENGDSIHYSDSVKGRFAVSRDNAKNTVYLQMNSLKPEDTAIYYCAADRAAYYCSGSGCYPSRAPAAASYDYWGQGTQVTVSS", "answerLabel": 1.0}
{"binder": "anti-CI-M6PR VHH11 (VHH, His6-tagged; made in Pichia pastoris) VHH: QVQLQESGGGLVQAGDSLKLSCTASGPTFSEITGGWFRQVPGKEREFVASISSTGITTYYTDSVKGRFTVSRDNAKNTMYLQMNSLKPEDTGVYYCAARSTSRSIAITVGYDYWGQGTQVTVSS", "answerLabel": 0.0}
{"binder": "anti-CI-M6PR VHH4 (VHH, His6-tagged; made in Pichia pastoris) VHH: QVQLQESGGGLVQAGGSLRLSCAASGRTFSNYVMGWFRQAPGKEREFVGSISQGGKMTYYPDSVKGRFTISRDNAKNTMYLQMDGLKPEDTAVYYCAVSRGYPMVRVSEVDYWGQGTQVTVSS", "answerLabel": 1.0}
{"binder": "anti-CI-M6PR VHH8 (VHH, His6-tagged (Pichia pastoris)) VHH: QVQLQESGGGLVQAGGSLRLSCEASGRTFNTYNWGWFRQAPGKEREFVAAIRWSSSKTSYADSVKGRFTISRDNAKNTIYLQMNSLKPEDTAVYYCAASIVDFTTNPSHFGSWGQGTQVTVSS", "answerLabel": 0.0}

Regarding anti-CI-M6PR VHH3 (VHH, His6-tagged; made in Pichia pastoris) VHH: QVQLQESGGGLVQPGGSLRLSCAAFGLNFKNFDMIWFRQAPGEERDIVAAISSSSSTIWYEDSVKGRFTISRDNAKNTVYLQMNSLKPEDTAVYYCAAALTSWRRPDYWGQGTQVTVSS , kindly confirm whether its koff is beneath 0.009 s⁻¹.
1.0

Problem: For the binder anti-CI-M6PR VHH9 (VHH, His6-tagged; made in Pichia pastoris) VHH: QVQLQESGGGLVQAGGSLRLSCAASGTILSIKTMGWYRQAPGKEREWVATITSSSIPMYADSVKGRFTISRDDAKNTVYLQMNSLKPEDTGVYYCNAPWTDYWGQGTQVTVSS , is koff under 0.009 s⁻¹?
0.0

Determine whether this binder shows koff lower than 0.009 s⁻¹ (ties excluded): anti-CI-M6PR VHH6 (VHH, His6-tagged; made in E. coli) VHH: QVQLQESGGGLVQAGGSLRLSCAVSGSISSIGGMGWFRQAPGKQREFVAVILNNSGMTSYADSVKGRFTISRGNSKNTMYLQMNSLKPEDTAVYYCNYSGYWGQGTQVTVSS
0.0

Would you kindly verify if koff of anti-CI-M6PR VHH7 (VHH, His6-tagged (Pichia pastoris)) VHH: QVQLQESGGGLVQPGGSLRLSCAASGIIFSDNRMDWYRQAPGKQREWVATLASYGWKTYADSVKGRFTISRDNTKNTVYLRMNSLKPEDTAVYYCKASSPVLNDIWGQGTQVTVSS is strictly less than 0.009 s⁻¹?
0.0
